Target: UniProt:P08909
Sequence (P08909 whole entry): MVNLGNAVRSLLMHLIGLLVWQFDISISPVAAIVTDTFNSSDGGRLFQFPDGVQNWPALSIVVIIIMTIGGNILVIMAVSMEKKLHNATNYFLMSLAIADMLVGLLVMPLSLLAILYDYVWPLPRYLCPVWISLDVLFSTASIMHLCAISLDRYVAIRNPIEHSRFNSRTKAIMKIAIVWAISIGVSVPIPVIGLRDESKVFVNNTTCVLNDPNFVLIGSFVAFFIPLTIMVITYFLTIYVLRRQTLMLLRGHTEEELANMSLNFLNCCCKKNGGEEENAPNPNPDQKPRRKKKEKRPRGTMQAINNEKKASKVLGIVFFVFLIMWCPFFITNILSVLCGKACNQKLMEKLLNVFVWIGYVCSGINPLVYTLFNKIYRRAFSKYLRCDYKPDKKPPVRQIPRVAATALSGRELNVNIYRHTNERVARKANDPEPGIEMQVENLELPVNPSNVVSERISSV
endpoint-name: pKi
Answers are plain numbers, as −log10 of the molar value.

Problem: Give a short answer stating reported pKi for COc1cc(CCNCc2cccc3c2OCO3)c(OC)cc1Br .
Solution: 7.95
